Experiment summary: Stability in buffer at various pH values (HPLC, unchanged test substance)
Assay type: physicochemical
Cond: buffer pH 7.4, 25° C., 24 h, acetonitrile/buffer 1:1
Structures can show the parent of a compound that is named as a salt.
Readout type: % test substance after 24 h [F(t = 24 h) × 100/F(t = 0 h)] (%)

Compound | Unit spec | Recorded number
NCCCC[C@H](N)C(=O)NCCCCC(=O)N(C[C@H]1CN(c2ccc(N3CCOCC3=O)cc2)C(=O)O1)C(=O)c1ccc(Cl)s1 [Example 14, hydrochloride] | % | 88
CC(C)[C@H](N)C(=O)OCCCCC(=O)N(C[C@H]1CN(c2ccc(N3CCOCC3=O)cc2)C(=O)O1)C(=O)c1ccc(Cl)s1 [Example 3, hydrochloride] | % | 100
NCC(=O)SCCCCC(=O)N(C[C@H]1CN(c2ccc(N3CCOCC3=O)cc2)C(=O)O1)C(=O)c1ccc(Cl)s1 [Example 5, hydrochloride] | % | 84
NCC(=O)OCCCCC(=O)N(C[C@H]1CN(c2ccc(N3CCOCC3=O)cc2)C(=O)O1)C(=O)c1ccc(Cl)s1 [Example 2, hydrochloride] | % | 94
CC(C)[C@H](N)C(=O)SCCCCC(=O)N(C[C@H]1CN(c2ccc(N3CCOCC3=O)cc2)C(=O)O1)C(=O)c1ccc(Cl)s1 [Example 4, hydrochloride] | % | 77

a. N[C@@H](Cc1c[nH]cn1)C(=O)NCCCCC(=O)N(C[C@H]1CN(c2ccc(N3CCOCC3=O)cc2)C(=O)O1)C(=O)c1ccc(Cl)s1 [Example 12, hydrochloride]
b. CC(C)[C@H](N)C(=O)SCCCC(=O)N(C[C@H]1CN(c2ccc(N3CCOCC3=O)cc2)C(=O)O1)C(=O)c1ccc(Cl)s1 [Example 8, hydrochloride]
Hey, which is lower on measured % test substance after 24 h [F(t = 24 h) × 100/F(t = 0 h)], a or b ? Refer to your chosen item by its label in the answer.
b
(b: 48%, a: 93%)

A. O=C(NCCCCC(=O)N(C[C@H]1CN(c2ccc(N3CCOCC3=O)cc2)C(=O)O1)C(=O)c1ccc(Cl)s1)[C@@H]1CCCN1 [Example 11, hydrochloride]
B. NCCCC[C@H](N)C(=O)SCCCCC(=O)N(C[C@H]1CN(c2ccc(N3CCOCC3=O)cc2)C(=O)O1)C(=O)c1ccc(Cl)s1 [Example 6, dihydrochloride]
Parameter metric = % test substance after 24 h [F(t = 24 h) × 100/F(t = 0 h)]. Return the lower-valued option from A and B . Output the label that corresponds to your choice.
B
(B: 53%, A: 99%)

====

Experiment summary: Stability in buffer at various pH values (HPLC, unchanged test substance)
Format: physicochemical
Cond: buffer pH 4, 25° C., 24 h, acetonitrile/buffer 1:1
Where a name gives a salt, the structure may show the parent alone.
Readout type: % test substance after 24 h [F(t = 24 h) × 100/F(t = 0 h)] (%)

Molecule | Recorded number
NCCCC[C@H](N)C(=O)NCCCCC(=O)N(C[C@H]1CN(c2ccc(N3CCOCC3=O)cc2)C(=O)O1)C(=O)c1ccc(Cl)s1 [Example 14, hydrochloride] | 100
C[C@H](N)C(=O)SCCCCC(=O)N(C[C@H]1CN(c2ccc(N3CCOCC3=O)cc2)C(=O)O1)C(=O)c1ccc(Cl)s1 [Example 7, hydrochloride] | 101
NCC(=O)OCCCCC(=O)N(C[C@H]1CN(c2ccc(N3CCOCC3=O)cc2)C(=O)O1)C(=O)c1ccc(Cl)s1 [Example 2, hydrochloride] | 101
CC(C)[C@H](N)C(=O)OCCCCC(=O)N(C[C@H]1CN(c2ccc(N3CCOCC3=O)cc2)C(=O)O1)C(=O)c1ccc(Cl)s1 [Example 3, hydrochloride] | 101
O=C(NCCCCC(=O)N(C[C@H]1CN(c2ccc(N3CCOCC3=O)cc2)C(=O)O1)C(=O)c1ccc(Cl)s1)[C@@H]1CCCN1 [Example 11, hydrochloride] | 101
CC(C)[C@H](N)C(=O)SCCCCC(=O)N(C[C@H]1CN(c2ccc(N3CCOCC3=O)cc2)C(=O)O1)C(=O)c1ccc(Cl)s1 [Example 4, hydrochloride] | 100
CC(C)[C@H](N)C(=O)SCCCC(=O)N(C[C@H]1CN(c2ccc(N3CCOCC3=O)cc2)C(=O)O1)C(=O)c1ccc(Cl)s1 [Example 8, hydrochloride] | 100

Data origin: patent US8362015B2
